Where these numbers come from: paper PMC10361251

Test Method Notes: Plasma pharmacokinetics of free and total GCM after i.v. or oral administration (LC-MS/MS, with or without β-glucuronidase hydrolysis)
Format: in vivo, Sprague-Dawley rats
Measurement Context: male, Sprague-Dawley, iv; free GCM, i.v. 10 mg/kg, rat plasma
Experimental Readout: C0 (µg/mL)
One number for each entry, in µg/mL.

For `COc1c(CC=C(C)C)c(O)cc2oc(=O)c(-c3ccc(O)cc3O)cc12` the compound record lists C0 as 5.69

----------
Test Method Notes: Plasma pharmacokinetics of free and total GCM after i.v. or oral administration (LC-MS/MS, with or without β-glucuronidase hydrolysis)
Format: in vivo, Sprague-Dawley rats
Measurement Context: male, Sprague-Dawley, iv; free GCM, i.v. 10 mg/kg, rat plasma; read-out: t1/2, λz (converted)
Experimental Readout: half-life (min)
Numbers only, in min.

// field: half-life; key: COc1c(CC=C(C)C)c(O)cc2oc(=O)c(-c3ccc(O)cc3O)cc12 [GCM, Glycycoumarin] ; value = 42.6

----------
Test Method Notes: Plasma pharmacokinetics of free and total GCM after i.v. or oral administration (LC-MS/MS, with or without β-glucuronidase hydrolysis)
Format: in vivo, Sprague-Dawley rats
Measurement Context: male, Sprague-Dawley, iv; free GCM, i.v. 10 mg/kg, rat plasma
Experimental Readout: AUC(0-t) (ng·h/mL)
Give bare numbers, in ng·h/mL.

Lab book: AUC(0-t) of COc1c(CC=C(C)C)c(O)cc2oc(=O)c(-c3ccc(O)cc3O)cc12 [GCM, Glycycoumarin] noted as 1160

----------
Test Method Notes: Urinary excretion of free and total GCM after i.v. administration
Assay type: in vivo, rats
Measurement Context: Sprague-Dawley, rat, urine, iv, 10 mg/kg, free GCM, 0–12 h, i.v. 10 mg/kg; read-out: Urine recovery
Experimental Readout: dose excreted (%)
Numbers only, in %.

Record summary for `COc1c(CC=C(C)C)c(O)cc2oc(=O)c(-c3ccc(O)cc3O)cc12` : reported dose excreted = 0.28
